System: NCI-H23 lung
measurementProtocol: NCI tumour cell line growth inhibition, 48 h
TGI overview

compound	target	measured
CC(=O)CCC(=O)CC(O)(C(F)(F)F)C(F)(F)F	NCI-H23 lung	43.2 µM

Ask: Could you share which TGI value was measured for `Cn1cc(C(=O)/C(Cl)=C(\Cl)C(=O)O)c2ccccc21` ?
Result: > 100 µM

Ask: Could you share which TGI value was measured for CCCCCCCCO/N=C\c1c2c(O)c3c(O)c(C)c4c(c3c1O)C(=O)C(C)(O/C=C\C(OC)C(C)C(OC(C)=O)C(C)C(O)C(C)C(O)C(C)/C=C\C=C(\C)C(=O)N2)O4 (stereo unspecified) ?
Result: 6.55 µM

Ask: Could you share which TGI value was measured for CC(=O)NC(Cc1c[nH]c2ccccc12)C(=O)O (stereo unspecified) ?
Result: > 100 µM

Ask: Could you share which TGI value was measured for `[N-]=[N+]=Nc1cc(=O)n(-c2ccccc2)c(=O)n1-c1ccccc1` ?
Result: > 100 µM

Ask: Could you share which TGI value was measured for `CN1CCN(CCCOc2ccc3ncnc(Nc4ccc(Oc5cccc(C(F)(F)F)c5)c(Cl)c4)c3c2)CC1` ?
Result: 4.04 µM

Ask: Could you share which TGI value was measured for CC(C)C1=CC(=O)C(C)(C2=NC(C)(C)CO2)c2ccccc21 (stereo unspecified) ?
Result: > 100 µM

Ask: Could you share which TGI value was measured for COc1ccc(C2c3cc4c(cc3OC(O)(CO)C2C(=O)O)OCO4)c(OC)c1OC (stereo unspecified) (tested in a mixture with another compound) ?
Result: > 100 µM

Ask: Could you share which TGI value was measured for `COc1ccc(C(=O)O)c2c(=O)c3ccccc3[nH]c12` ?
Result: > 100 µM

Ask: Could you share which TGI value was measured for CC1=C(C(=O)OC23CC4CC(CC(C4)C2)C3)C(c2ccccc2OC(F)F)C(C(=O)OC23CC4CC(CC(C4)C2)C3)=C(C)N1 (stereo unspecified) ?
Result: > 100 µM

Ask: Could you share which TGI value was measured for `O=C1NC(=O)[C@H]2C3C=CC([C@@H]12)[C@@H]1C(=O)NC(=O)[C@H]31` ?
Result: > 100 µM

----------
TGI overview
Tested on: MOLT-4 leukemia
measurementProtocol: NCI tumour cell line growth inhibition, 48 h

Use these answered entries as a reference point.
compound	target	measured
COc1ccc(C(=O)O)c2c(=O)c3ccccc3[nH]c12	MOLT-4 leukemia	> 100 µM
Cc1nc(Cl)c(C)c(Cl)n1	MOLT-4 leukemia	> 100 µM

Ask: Could you share which TGI value was measured for `N#Cc1c(N)nc(N2CCOCC2)c(C#N)c1-c1cccc(O)c1` ?
Result: > 100 µM

Ask: Could you share which TGI value was measured for `O=C(NN1C(=O)/C(=C/c2ccc(Cl)cc2)N=C1c1ccccc1)c1c(Cl)c(Cl)c(Cl)c(Cl)c1-c1nc2ccccc2[nH]1` ?
Result: > 100 µM

----------
Tested on: CCRF-CEM leukemia
measurementProtocol: NCI tumour cell line growth inhibition, 48 h
TGI overview

Use these answered entries as a reference point.
compound	TGI
CNC(=O)c1ccc(Nc2nc(OC3CCCC3)c3c(-c4ccc5nc(C)oc5c4)c[nH]c3n2)c(OC)c1	> 44.4 µM
COc1ccc(/C=c2/[nH]c(=O)/c(=C\c3ccc(OCc4ccccc4)cn3)[nH]c2=O)cc1	> 100 µM
Cc1cc2c(cc1Cl)SC(NNC(=O)c1ccncc1)=NS2(=O)=O	> 10 µM
Cc1ccc(NC(=O)/C(=N/NC(=O)CC#N)C2C(=O)N(c3ccccc3)N=C2N)cc1C (centres undefined)	> 100 µM
CC1(C)OC(=O)C=C(O)O1.CC1(C)OC(=O)C=C(O)O1.CCO.Oc1ccc2c(c1)CCC2.[Ti]	> 100 µM
COc1ccc(C(=O)O)c2c(=O)c3ccccc3[nH]c12	> 31.6 µM
CCC(C)C(NC(=O)C(CCCCN)NC(=O)C(NC(=O)C(CCC(N)=O)NC(=O)C(CCCNC(=N)N)NC(C)=O)C(C)CC)C(=O)NC(Cc1c[nH]c2ccccc12)C(=O)NC(Cc1ccccc1)C(=O)NC(CCC(N)=O)C(=O)NC(CC(N)=O)C(=O)NC(CCCNC(=N)N)C(=O)NC(CCCNC(=N)N)C(=O)NC(CCSC)C(=O)NC(CCCCN)C(=O)NC(Cc1c[nH]c2ccccc12)C(=O)NC(CCCCN)C(=O)NC(CCCCN)C(N)=O (centres undefined)	> 50 µM
O=c1oc2ccccc2c(O)c1C(c1ccc2ccccc2c1)c1c(O)c2ccccc2oc1=O	> 100 µM

Now take the following compound into account.
Ask: Could you share which TGI value was measured for `Cc1c(C(=O)Nc2ccc(Cl)c(C(F)(F)F)c2)oc2cc(O)ccc2/c1=N\NC(N)=S` ?
Result: > 100 µM
